# MEASUREMENT TARGET: Estrogen receptor (Homo sapiens) (UniProt P03372)
# Sequence (P03372 whole entry): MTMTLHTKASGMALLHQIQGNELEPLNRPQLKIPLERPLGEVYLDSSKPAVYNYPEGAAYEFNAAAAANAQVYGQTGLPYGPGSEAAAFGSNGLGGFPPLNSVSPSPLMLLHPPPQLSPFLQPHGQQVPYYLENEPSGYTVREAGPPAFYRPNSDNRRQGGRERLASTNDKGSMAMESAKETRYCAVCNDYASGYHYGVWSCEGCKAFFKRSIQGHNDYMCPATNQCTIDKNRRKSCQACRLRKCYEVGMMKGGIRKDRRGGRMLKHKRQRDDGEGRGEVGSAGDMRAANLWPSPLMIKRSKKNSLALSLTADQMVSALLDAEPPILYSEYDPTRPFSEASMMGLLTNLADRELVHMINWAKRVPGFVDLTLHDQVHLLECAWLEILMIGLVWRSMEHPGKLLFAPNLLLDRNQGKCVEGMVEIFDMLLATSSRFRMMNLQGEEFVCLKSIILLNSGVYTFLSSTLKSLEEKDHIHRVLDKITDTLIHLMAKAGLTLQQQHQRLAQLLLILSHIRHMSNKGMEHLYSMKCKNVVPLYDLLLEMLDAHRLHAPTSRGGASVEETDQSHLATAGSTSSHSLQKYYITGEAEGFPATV
# TEST SUMMARY: Transcriptional agonistic efficacy against ER alpha at 10e-6 M by cotransfection in HEC-1 cells
# Format: functional, cell-based
ASSAY READOUT: Efficacy (%)

Worked cases, answers included:
>>> reading("Oc1ccc(C(=C2C3CCCC2CCC3)c2ccc(O)cc2)cc1")
22
>>> reading("Oc1ccc(C(=C2C3CCCC2CCC3)c2ccc(F)cc2)cc1")
63
>>> reading("Oc1ccc(C(=C2C3CCCC2CCC3)c2ccccc2)cc1")
80
>>> reading("Oc1ccc(C(=C2CCCCC2)c2ccc(O)cc2)cc1")
12
>>> reading("Oc1ccc(C(c2ccc(O)cc2)C2C3CCCC2CCC3)cc1 (configuration not stated)")
41

a. CC1(C)CC(=C(c2ccc(O)cc2)c2ccc(O)cc2)C[C@]2(C)C(C)(C)[C@H]3CC[C@@]12C3
b. CC12CCC(C1)C(C)(C)C2=C(c1ccc(O)cc1)c1ccc(O)cc1 (configuration not stated)
Between a and b , which one shows the smaller Efficacy number? Reply with the label of the item you choose.
a
(a: 4%, b: 11%)
